The following molecules are listed with their measured IC50 values.
target: Tubulin (Bos taurus, UniProt Q6B856+Q862L2+Q862F3); experiment: Inhibition of tubulin polymerization activity using homogenous bovine brain tubulin at 37 degree C; format: functional
API: value field is a number in µM; no unit string.

{"MOLECULE": "COc1cc2c(c(OC)c1OC)C(c1cccc(Br)c(=O)c1)CC2 (configuration not stated)", "DISPLAY_UNIT": "µM", "IC50": 28.1}
{"MOLECULE": "CNc1cccc(C2CCc3cc(OC)c(OC)c(OC)c32)cc1=O (configuration not stated)", "DISPLAY_UNIT": "µM", "IC50": 23.5}
{"MOLECULE": "COc1cc2c(c(OC)c1OC)C(c1cccc(OC)c(=O)c1)CC2 (configuration not stated)", "DISPLAY_UNIT": "µM", "IC50": 19}
{"MOLECULE": "COc1cc2c(c(OC)c1OC)C(c1cccc(N)c(=O)c1)CC2 (configuration not stated)", "DISPLAY_UNIT": "µM", "IC50": 23.6}
{"MOLECULE": "CCOc1cccc(C2CCc3cc(OC)c(OC)c(OC)c32)cc1=O (configuration not stated)", "DISPLAY_UNIT": "µM", "IC50": 18.2}

Returns the measured IC50 for the input molecule. Input: COc1ccc(C2CCc3cc(OC)c(OC)c(OC)c32)cc1O (configuration not stated)
10.9

Return reported IC50; argument: COc1cc(C2CCc3cc(OC)c(OC)c(OC)c32)ccc1O (configuration not stated)
46.4
